Sourced from ChEMBL document CHEMBL5303573

# run_description: The drug is tested on Eubacterium hallii strain: DSM3353 for biotransformation. The drug concentrations were measured before and after a 12-h incubation by liquid-chromatography-coupled mass spectrometry (LC–MS)
# experimental_conditions: anaerobutyricum hallii, 2 µM
measurement_name: Bacterial Biotransformation

Below, 5 compounds whose answers are already recorded.
compound: CCN(CC)CCNC(C(=O)OCCC(C)C)c1ccccc1.Cl.Cl (configuration not stated)
observed_result: Compound NOT metabolized
--
compound: N=C(N)NC(=O)Cc1c(Cl)cccc1Cl
observed_result: Compound NOT metabolized
--
compound: C#C[C@]1(OC(C)=O)CC[C@H]2[C@@H]3CCC4=CC(=O)CC[C@@H]4[C@H]3CC[C@@]21C [NORETHINDRONE ACETATE]
observed_result: Compound metabolized
--
compound: CCCN1C[C@H](CSC)C[C@@H]2c3cccc4[nH]cc(c34)C[C@H]21.CS(=O)(=O)O [PERGOLIDE MESYLATE]
observed_result: Compound NOT metabolized
--
compound: CCC1(c2ccc(N)cc2)CCC(=O)NC1=O (configuration not stated) [AMINOGLUTETHIMIDE]
observed_result: Compound NOT metabolized

Please supply Bacterial Biotransformation for each of the following items, keeping them in order.
1. COc1cc2nc(N3CCN(C(=O)C4COc5ccccc5O4)CC3)nc(N)c2cc1OC.CS(=O)(=O)O (configuration not stated) [DOXAZOSIN MESYLATE]
2. CCOc1ccc2nc(S(N)(=O)=O)sc2c1 [ETHOXZOLAMIDE]

1. Compound NOT metabolized
2. Compound metabolized

---

# run_description: The drug is tested on Bacteroides uniformis strain: ATCC8492 for biotransformation. The drug concentrations were measured before and after a 12-h incubation by liquid-chromatography-coupled mass spectrometry (LC–MS)
# experimental_conditions: 2 µM

compound: CC(C)c1nc(CN(C)C(=O)N[C@H](C(=O)N[C@@H](Cc2ccccc2)C[C@H](O)[C@H](Cc2ccccc2)NC(=O)OCc2cncs2)C(C)C)cs1
Bacterial Biotransformation: Compound metabolized

compound: CN(C)C(=O)Oc1cccc([N+](C)(C)C)c1.[Br-] [NEOSTIGMINE BROMIDE]
Bacterial Biotransformation: Compound metabolized

---

# run_description: The drug is tested on Bacteroides fragilis strain: HMW615 for biotransformation. The drug concentrations were measured before and after a 12-h incubation by liquid-chromatography-coupled mass spectrometry (LC–MS)
# experimental_conditions: 2 µM
measurement_name: Bacterial Biotransformation

Below, 6 molecules whose answers are already recorded.
molecule: O=C([O-])C[C@H](O)C[C@H](O)/C=C/c1c(C2CC2)nc2ccccc2c1-c1ccc(F)cc1.O=C([O-])C[C@H](O)C[C@H](O)/C=C/c1c(C2CC2)nc2ccccc2c1-c1ccc(F)cc1.[Ca+2] [PITAVASTATIN CALCIUM]
Bacterial Biotransformation: Compound NOT metabolized

molecule: CCOC(=O)[C@H](CCc1ccccc1)N[C@@H](C)C(=O)N1[C@H](C(=O)O)C[C@H]2CCCC[C@@H]21 [TRANDOLAPRIL]
Bacterial Biotransformation: Compound metabolized

molecule: Cc1ccc(S(=O)(=O)NC(=O)NN2CC3CCCC3C2)cc1 (stereo not drawn) [GLICLAZIDE]
Bacterial Biotransformation: Compound NOT metabolized

molecule: CC(=O)O[C@]1(C(C)=O)CC[C@H]2[C@@H]3C=C(Cl)C4=CC(=O)[C@@H]5C[C@@H]5[C@]4(C)[C@H]3CC[C@@]21C [CYPROTERONE ACETATE]
Bacterial Biotransformation: Compound metabolized

molecule: O=C(Nc1ccccc1)OCC(CN1CCCCC1)OC(=O)Nc1ccccc1 (stereo not drawn) [DIPERODON]
Bacterial Biotransformation: Compound NOT metabolized

molecule: CC(=O)Nc1ccc(OC(C)=O)cc1 [DIACETAMATE]
Bacterial Biotransformation: Compound metabolized

Please supply Bacterial Biotransformation for each of the following items, keeping them in order.
1. CN1CCN2c3ccccc3Cc3ccccc3C2C1 (stereo not drawn) [MIANSERIN]
2. Nc1c2c(nc3ccccc13)CCCC2 [TACRINE]

1. Compound NOT metabolized
2. Compound NOT metabolized
